- TEST METHOD NOTES: Hydrolysis half life in glycine/HCl buffer at the specified pH of 3.0
- Type: ADME
- EXPERIMENTAL SETUP: pH 3
ASSAY READOUT: half-life (min)
Give just the numeric value; min need not be written.

Need half-life of Nc1ncnc2c1ncn2[C@H]1C=C[C@@H](COP2(=O)OCc3ccccc3O2)O1 (stereo not given in full) , thanks.
8.4

Need half-life of Cc1cccc2c1OP(=O)(OCC1CCC(n3cnc4c(O)ncnc43)O1)OC2 (stereo not given) , thanks.
180

Need half-life of Cc1cccc2c1OP(=O)(OCC1CCC(n3cnc4c(N)ncnc43)O1)OC2 (stereo not given) , thanks.
834

Need half-life of COc1ccc2c(c1)COP(=O)(OC[C@@H]1C=C[C@H](n3cnc4c(N)ncnc43)O1)O2 (stereo in doubt; 10b) , thanks.
8.4

Need half-life of Cc1cc(C)c2c(c1)COP(=O)(OC[C@@H]1C=C[C@H](n3cnc4c(N)ncnc43)O1)O2 (stereo not given in full) , thanks.
8.4

---

Reported half-life is given for each of the following compounds.
- TEST METHOD NOTES: Hydrolysis half life in glycine/HCl buffer at the specified pH of 1.5
- Type: ADME
- EXPERIMENTAL SETUP: pH 1.5
Give just the numeric value; min need not be written.

Below are worked cases with known answers.
Need half-life of Cc1cccc2c1OP(=O)(OC[C@@H]1C=C[C@H](n3cnc4c(N)ncnc43)O1)OC2 (some centres not stated) , thanks.
0.588

Need half-life of OCC1CCC(n2cnc3ncnc(O)c32)O1 (configuration not stated) , thanks.
1.8

Need half-life of COc1ccc2c(c1)COP(=O)(OCC1CCC(n3cnc4c(N)ncnc43)O1)O2 (configuration not stated) , thanks.
48

Need half-life of COc1ccc2c(c1)COP(=O)(OC[C@@H]1C=C[C@H](n3cnc4c(N)ncnc43)O1)O2 (stereo in doubt; 10b) , thanks.
0.66

Need half-life of Cc1cc(C)c2c(c1)COP(=O)(OC[C@@H]1C=C[C@H](n3cnc4c(N)ncnc43)O1)O2 (some centres not stated) , thanks.
0.6

Need half-life of Cc1cccc2c1OP(=O)(OCC1CCC(n3cnc4c(N)ncnc43)O1)OC2 (configuration not stated) , thanks.
31.8

Now look at this entry.
Need half-life of Cc1cccc2c1OP(=O)(OCC1CCC(n3cnc4c(O)ncnc43)O1)OC2 (configuration not stated) , thanks.
12

---

- Tested on: Human immunodeficiency virus 2
- TEST METHOD NOTES: In vitro inhibition of HIV-2 replication in human T-lymphocytic cells (CEM).
- Format: functional, organism-based
- EXPERIMENTAL SETUP: Human immunodeficiency virus 2
Reported EC50 is given for each of the following compounds.
Give just the numeric value; µM need not be written.

Below are worked cases with known answers.
Need EC50 of COc1ccc2c(c1)COP(=O)(OCC1CCC(n3cnc4c(N)ncnc43)O1)O2 (centres undefined) , thanks.
0.16

Need EC50 of Nc1ncnc2c1ncn2C1CCC(COP2(=O)OCc3ccccc3O2)O1 (centres undefined) , thanks.
0.13

Now look at this entry.
Need EC50 of Cc1cccc2c1OP(=O)(OCC1CCC(n3cnc4c(O)ncnc43)O1)OC2 (centres undefined) , thanks.
0.7

---

- TEST METHOD NOTES: Partition coefficient (logP)
- Format: physicochemical
- EXPERIMENTAL SETUP: octanol/water; read-out: logP
Reported logP is given for each of the following compounds.
Write the value as a bare number.

Below are worked cases with known answers.
Need logP of OCC1CCC(n2cnc3ncnc(O)c32)O1 (centres undefined) , thanks.
-1.25

Need logP of Nc1ncnc2c1ncn2[C@H]1C=C[C@@H](CO)O1 , thanks.
-0.49

Need logP of Cc1cn([C@H]2C[C@H](N=[N+]=[N-])[C@@H](CO)O2)c(=O)[nH]c1=O [ZIDOVUDINE] , thanks.
0.025

Now look at this entry.
Need logP of OC[C@@H]1C=C[C@H](n2cnc3ncnc(O)c32)O1 , thanks.
-0.89

---

- Tested on: Human immunodeficiency virus 2
- TEST METHOD NOTES: In vitro inhibition of HIV-2 replication in human T-lymphocytic cells (CEM).
- Format: functional, organism-based
- EXPERIMENTAL SETUP: Human immunodeficiency virus 2
Reported EC50 is given for each of the following molecules.
Give just the numeric value; nM need not be written.

Below are worked cases with known answers.
Need EC50 of Cc1cccc2c1OP(=O)(OCC1CCC(n3cnc4c(N)ncnc43)O1)OC2 (stereo not given) , thanks.
30

Need EC50 of Nc1ncnc2c1ncn2[C@H]1CC[C@@H](CO)O1 , thanks.
4500

Need EC50 of Cc1cn([C@H]2C=C[C@@H](CO)O2)c(=O)[nH]c1=O , thanks.
260

Need EC50 of Cc1cn([C@H]2C[C@H](N=[N+]=[N-])[C@@H](CO)O2)c(=O)[nH]c1=O , thanks.
6

Need EC50 of Nc1ncnc2c1ncn2[C@H]1C=C[C@@H](CO)O1 , thanks.
50000

Need EC50 of OCC1CCC(n2cnc3ncnc(O)c32)O1 (stereo not given) , thanks.
4000

Need EC50 of Cc1cccc2c1OP(=O)(OC[C@@H]1C=C[C@H](n3cnc4c(N)ncnc43)O1)OC2 (stereo not given in full) , thanks.
190

Need EC50 of Cc1cc(C)c2c(c1)COP(=O)(OCC1CCC(n3cnc4c(N)ncnc43)O1)O2 (stereo not given) , thanks.
25

Further cases:
Need EC50 of Nc1ncnc2c1ncn2[C@H]1C=C[C@@H](COP2(=O)OCc3ccccc3O2)O1 (stereo not given in full) , thanks.
350

Need EC50 of Cc1cc(C)c2c(c1)COP(=O)(OC[C@@H]1C=C[C@H](n3cnc4c(N)ncnc43)O1)O2 (stereo not given in full) , thanks.
55

---

- TEST METHOD NOTES: Hydrolysis half life in phosphate buffer at the specified pH of 7.3
- Assay type: ADME
- EXPERIMENTAL SETUP: pH 7.3
Values of half-life strictly less than 40 h map to YES, and values of at least 40 h map to NO.

Dear colleague, could you confirm whether half-life of Cc1cccc2c1OP(=O)(OC[C@@H]1C=C[C@H](n3cnc4c(N)ncnc43)O1)OC2 (some centres undefined) falls below 40 h? Thanks.
YES

Dear colleague, could you confirm whether half-life of Cc1cc(C)c2c(c1)COP(=O)(OC[C@@H]1C=C[C@H](n3cnc4c(N)ncnc43)O1)O2 (some centres undefined) falls below 40 h? Thanks.
NO

Dear colleague, could you confirm whether half-life of Cc1cccc2c1OP(=O)(OCC1CCC(n3cnc4c(N)ncnc43)O1)OC2 (centres undefined) falls below 40 h? Thanks.
NO

Dear colleague, could you confirm whether half-life of Nc1ncnc2c1ncn2C1CCC(COP2(=O)OCc3ccccc3O2)O1 (centres undefined) falls below 40 h? Thanks.
YES

Dear colleague, could you confirm whether half-life of Cc1cc(C)c2c(c1)COP(=O)(OCC1CCC(n3cnc4c(N)ncnc43)O1)O2 (centres undefined) falls below 40 h? Thanks.
NO

Dear colleague, could you confirm whether half-life of COc1ccc2c(c1)COP(=O)(OC[C@@H]1C=C[C@H](n3cnc4c(N)ncnc43)O1)O2 (stereo in doubt; 10b) falls below 40 h? Thanks.
YES

Dear colleague, could you confirm whether half-life of Nc1ncnc2c1ncn2[C@H]1C=C[C@@H](COP2(=O)OCc3ccccc3O2)O1 (some centres undefined) falls below 40 h? Thanks.
YES

Dear colleague, could you confirm whether half-life of COc1ccc2c(c1)COP(=O)(OCC1CCC(n3cnc4c(N)ncnc43)O1)O2 (centres undefined) falls below 40 h? Thanks.
YES

Dear colleague, could you confirm whether half-life of Cc1cccc2c1OP(=O)(OCC1CCC(n3cnc4c(O)ncnc43)O1)OC2 (centres undefined) falls below 40 h? Thanks.
NO

---

- Tested on: CCRF-CEM
- TEST METHOD NOTES: In vitro cytotoxic concentration in CEM cells.
- Assay type: functional, Homo sapiens
- EXPERIMENTAL SETUP: Homo sapiens, CCRF-CEM
Reported CC50 is given for each of the following compounds.
Give just the numeric value; µM need not be written.

// lookup CC50 | system=CCRF-CEM | key= Cc1cn([C@H]2C=C[C@@H](CO)O2)c(=O)[nH]c1=O
56

// lookup CC50 | system=CCRF-CEM | key= Cc1cccc2c1OP(=O)(OC[C@@H]1C=C[C@H](n3cnc4c(N)ncnc43)O1)OC2 (stereo not given in full)
49

// lookup CC50 | system=CCRF-CEM | key= Cc1cccc2c1OP(=O)(OCC1CCC(n3cnc4c(O)ncnc43)O1)OC2 (stereo not given)
58

Now look at this entry.
// lookup CC50 | system=CCRF-CEM | key= Nc1ncnc2c1ncn2[C@H]1C=C[C@@H](CO)O1
96

---

Reported log10(CC50) is given for each of the following compounds.
- Test system: CCRF-CEM
- TEST METHOD NOTES: In vitro cytotoxic concentration in CEM cells.
- Type: functional, Homo sapiens
- EXPERIMENTAL SETUP: Homo sapiens, CCRF-CEM
Quick note: numbers are log10 of CC50, with µM as the unit.

Need log10(CC50) of Cc1cc(C)c2c(c1)COP(=O)(OC[C@@H]1C=C[C@H](n3cnc4c(N)ncnc43)O1)O2 (stereo not given in full) , thanks.
1.40

Need log10(CC50) of Cc1cc(C)c2c(c1)COP(=O)(OCC1CCC(n3cnc4c(N)ncnc43)O1)O2 (stereo not given) , thanks.
1.00

Need log10(CC50) of Cc1cccc2c1OP(=O)(OCC1CCC(n3cnc4c(N)ncnc43)O1)OC2 (stereo not given) , thanks.
1.45

Need log10(CC50) of OCC1CCC(n2cnc3ncnc(O)c32)O1 (stereo not given) , thanks.
2.19

Need log10(CC50) of COc1ccc2c(c1)COP(=O)(OC[C@@H]1C=C[C@H](n3cnc4c(N)ncnc43)O1)O2 (stereo in doubt; 10b (s)) , thanks.
1.79

Need log10(CC50) of OC[C@@H]1C=C[C@H](n2cnc3ncnc(O)c32)O1 , thanks.
1.94

Need log10(CC50) of Nc1ncnc2c1ncn2C1CCC(COP2(=O)OCc3ccccc3O2)O1 (stereo not given) , thanks.
1.97

Need log10(CC50) of COc1ccc2c(c1)COP(=O)(OCC1CCC(n3cnc4c(N)ncnc43)O1)O2 (stereo not given) , thanks.
1.94

Further cases:
Need log10(CC50) of Nc1ncnc2c1ncn2[C@H]1C=C[C@@H](COP2(=O)OCc3ccccc3O2)O1 (stereo not given in full) , thanks.
1.93
